Biological target: human ether-à-go-go-related gene (hERG) potassium channel (human, UniProt Q12809)
Sequence (Q12809 whole entry, looked up): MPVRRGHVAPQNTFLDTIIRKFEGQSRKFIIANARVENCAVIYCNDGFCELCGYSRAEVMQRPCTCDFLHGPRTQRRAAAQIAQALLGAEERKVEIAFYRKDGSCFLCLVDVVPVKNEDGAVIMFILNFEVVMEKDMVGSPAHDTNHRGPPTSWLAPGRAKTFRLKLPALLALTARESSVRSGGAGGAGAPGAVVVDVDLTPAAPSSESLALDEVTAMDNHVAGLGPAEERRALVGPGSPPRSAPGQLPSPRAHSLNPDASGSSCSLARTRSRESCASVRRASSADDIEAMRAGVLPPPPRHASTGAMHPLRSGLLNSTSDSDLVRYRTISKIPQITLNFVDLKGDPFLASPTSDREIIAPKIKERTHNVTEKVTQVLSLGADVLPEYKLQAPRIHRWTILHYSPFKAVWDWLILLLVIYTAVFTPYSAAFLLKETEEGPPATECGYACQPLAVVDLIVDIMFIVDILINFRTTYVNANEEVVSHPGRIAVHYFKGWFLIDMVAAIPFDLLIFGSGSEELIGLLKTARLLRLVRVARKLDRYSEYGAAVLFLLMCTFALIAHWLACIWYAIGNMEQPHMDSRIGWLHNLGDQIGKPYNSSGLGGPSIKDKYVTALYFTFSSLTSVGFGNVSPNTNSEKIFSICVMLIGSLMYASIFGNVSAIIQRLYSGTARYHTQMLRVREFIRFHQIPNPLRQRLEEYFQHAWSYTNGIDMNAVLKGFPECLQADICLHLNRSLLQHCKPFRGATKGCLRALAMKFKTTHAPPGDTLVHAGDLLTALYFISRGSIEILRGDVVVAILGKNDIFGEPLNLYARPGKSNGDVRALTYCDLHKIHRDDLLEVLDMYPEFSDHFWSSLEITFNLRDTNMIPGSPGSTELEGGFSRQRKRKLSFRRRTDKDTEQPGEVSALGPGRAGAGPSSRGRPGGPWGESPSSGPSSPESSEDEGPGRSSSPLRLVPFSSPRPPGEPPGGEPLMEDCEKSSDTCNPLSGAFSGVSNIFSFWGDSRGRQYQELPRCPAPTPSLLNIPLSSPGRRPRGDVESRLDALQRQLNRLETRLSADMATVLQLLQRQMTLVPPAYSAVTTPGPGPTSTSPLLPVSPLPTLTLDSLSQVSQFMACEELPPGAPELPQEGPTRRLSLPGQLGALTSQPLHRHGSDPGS
Test: primary screen, population patch clamp on CHO cells stably expressing hERG; higher = less effect of the substance
Source text: Briefly, Chinese hamster ovary (CHO) cells stably expressing the hERG channel were dislodged from tissue culture flasks and dispensed into PPC plates. […] Small molecule effects on hERG current density were quantified by […].
Hit rate of the full screen: of about 310,000 compounds, about 2,200 (0.71%) showed an effect of 50% or more. Effects have a minus sign here. This is one part of a sample in which strong results are shown more often than they occur.
property measured: hERG current change (%, negative = inhibition) at 1uM (%)

[
  {
    "compound": "CCN(Cc1ccc(NC(C)=O)cc1)CC1CCCN(CCc2cccc(F)c2)C1 (stereo not drawn)",
    "observed": 9.42
  },
  {
    "compound": "COc1ccc(CCn2c(=N)c(C(=O)N3CCN(C)CC3)cc3c(=O)n4ccccc4nc32)cc1",
    "observed": -2.76
  },
  {
    "compound": "CC1CN(S(=O)(=O)c2cccc(C(=O)Nc3ccc4c(c3)CCC4)c2)CC(C)O1 (stereo not drawn)",
    "observed": 1.39
  }
]

====

Biological target: human ether-à-go-go-related gene (hERG) potassium channel (human, UniProt Q12809)
Test: primary screen, population patch clamp on CHO cells stably expressing hERG; higher = less effect of the substance
About 2,200 (0.71%) of roughly 310,000 compounds showed an effect of 50% or more. Effects have a minus sign here. This is one part of a sample in which strong results are shown more often than they occur.
property measured: hERG current change (%, negative = inhibition) at 1uM (%)

[
  {
    "smiles text": "O=C(NCCCCCCNC(=O)NCc1ccco1)NCc1ccco1",
    "observed": 6.09
  },
  {
    "smiles text": "Cl.O.O=C(c1ccc(F)cc1)C1CCN(CCn2c(=S)[nH]c3ccccc3c2=O)CC1",
    "observed": -77.7
  },
  {
    "smiles text": "O=c1c2ccccc2[nH]c(=S)n1CCCN1CCN(c2ccccc2)CC1",
    "observed": 14
  },
  {
    "smiles text": "CC1CCN(CCn2c(=S)[nH]c3ccccc3c2=O)CC1",
    "observed": 1.9
  },
  {
    "smiles text": "O=C(CN1CCC(C(=O)c2ccc(F)cc2)CC1)NCc1ccccc1F",
    "observed": 2.84
  }
]

====

Target: human ether-à-go-go-related gene (hERG) potassium channel (human, UniProt Q12809)
Experiment: primary screen, population patch clamp on CHO cells stably expressing hERG; higher = less effect of the substance
About 2,200 (0.71%) of roughly 310,000 compounds showed an effect of 50% or more. Effects have a minus sign here. The sample as a whole holds a higher share of strong results than the screen did.
Classification field: enter yes (1) for hERG current change (%, negative = inhibition) at 1uM values not below -70%, no (0) for values below it.

[
  {
    "molecule": "CC(C(=O)NC(=O)NC1CCCCC1)N(C)CC(=O)Nc1ccc(F)c(F)c1F (stereo not shown)",
    "label value": "yes (1)"
  },
  {
    "molecule": "OCCC1CN(Cc2ccn[nH]2)CCN1Cc1ccc(F)c(F)c1 (stereo not shown)",
    "label value": "yes (1)"
  },
  {
    "molecule": "CCOC(=O)c1sc2nc(C)nc(NCc3ccccc3)c2c1C",
    "label value": "yes (1)"
  },
  {
    "molecule": "COc1cc(CN2CCN(c3cccc(C)c3C)CC2)cc(Br)c1O",
    "label value": "yes (1)"
  },
  {
    "molecule": "OCCC1CN(Cc2ccc(Oc3ncccn3)cc2)CCN1Cc1ccc(F)c(F)c1 (stereo not shown)",
    "label value": "yes (1)"
  },
  {
    "molecule": "COCCNc1nc(CSc2ccccc2)nc2sc(C)c(C)c12",
    "label value": "yes (1)"
  },
  {
    "molecule": "Cc1nc2sc(C(c3cccs3)N3CCN(c4ccccc4)CC3)c(O)n2n1 (stereo not shown)",
    "label value": "yes (1)"
  },
  {
    "molecule": "CCOc1ccc(C(=S)N2CCN(C)CC2)cc1",
    "label value": "no (0)"
  },
  {
    "molecule": "O=S(=O)(N/N=C/c1cn(Cc2ccccc2)c2ccccc12)c1ccccc1",
    "label value": "yes (1)"
  },
  {
    "molecule": "COc1ccc(-c2noc(CCC(=O)NCCCN3CCC(Cc4ccccc4)CC3)n2)cc1",
    "label value": "no (0)"
  },
  {
    "molecule": "Cc1ccc(OCCN(C)C(=O)c2cc(COc3ccc(F)cc3F)on2)cc1",
    "label value": "yes (1)"
  },
  {
    "molecule": "O=C(c1ccc(-n2cccc2)cc1)N1CCN(Cc2ccccc2)CC1",
    "label value": "yes (1)"
  },
  {
    "molecule": "OCCC1CN(Cc2cccn2-c2nccs2)CCN1Cc1ccc(F)c(F)c1 (stereo not shown)",
    "label value": "no (0)"
  },
  {
    "molecule": "Cc1ccc(CN2CCN(Cc3cccn3-c3nccs3)CC2CCO)cc1 (stereo not shown)",
    "label value": "no (0)"
  },
  {
    "molecule": "C=CCOc1ccccc1CN1CCSCC1",
    "label value": "yes (1)"
  }
]
